# credit: the supplement of paper PMC9170038

Exercise: state measured apparent KD of K4 kissing-loop reporter for each of the sequences provided.
test system: K4 kissing-loop RNA reporter; assay: apparent KD of K4 kissing-loop reporter; higher = weaker reporter binding; details: Eterna round: R107; input ligand: FMN 200 uM;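 note: bound reporter read as fluorescence of individual clusters on recovered sequencing chips by microscopy, with normalized cluster intensities fitted with a binding model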
One number for each entry, in nM.

Below: 2 sequences and their reported apparent KD of K4 kissing-loop reporter.
MACROMOLECULE SEQUENCE | MEASUREMENT UNITS | apparent KD of K4 kissing-loop reporter
AUUAUAAAGGCGGCCGCCACUAGUGAUGUUAGUGACUAUAGUAUUAUCUAUAGAAUAAAAUAAAAUAGGACCGGGCCAAAAUAUU [AstrosExTryB#2] | nM | 535
ACGUCCGGGUUAAUCGUGGGCGUGGUGGAUACCAGUUCUUCAAUGAACCCUUGGCAGCCACGUGAGUGAUGUUCACGUGCGAUGA [#15 K4 Theophylline A Exclusion] | nM | 98.7

Record apparent KD of K4 kissing-loop reporter per entry; entries follow.
1. AUCAGUGUCUCACGCUACGACAUAUACGAUACCAGUCACCCUGAUGACCCUUGGCAGCGUCAACGAGUGAUGUUCGGGUUCUAGA [theeternabot_sameState_KL_Theo_A_1]
2. CCACAAUAUGGAAGGAGCGCCAGUGAUGUUGGUGCUUGCUUUAGGUAAGACCGGCCUAUUUGGCAGGUAGGUCGCCAUAUUCAAC [Ageat]
3. UGACUGGACUGAAGGAGCGGGCGAGACAAAGUCUCGAACUCGUAGUGAUGUUAUGAAAUAACCCAGGUAGGUCGCAGUCUAGUCU
4. CGGGAUGUUAAAGGAUAUAGCAGGUGAUACAAGAAAGUGAGUGAUGUUUAUGUAGAUGAUGAUAUGUUAGAAGGUUAACAAAACG [abcdefghijkl]

Result:
1: 345; 2: 103; 3: 1130; 4: 1040
